The measured values listed here are drawn from patent US20020177126A1.

# MEASUREMENT_TARGET: RSV F glycoprotein (NUF4) (respiratory syncytial virus (RSV))
# ASSAY_NAME: BIAcore, Mab vs NUF4, 1:1
pKd: −log10 of the molar value.
EXPERIMENTAL_ENDPOINT: pKd

SUBSTANCE	VALUE_MEASURED
SYNAGIS® (antibody)	8.06
